experimental system: cycloAMP-dependent kinase (Homo sapiens, UniProt P17612)
measurement notes: A-kinase: inhibition of cyclic AMP-dependent kinase (commercially available catalytic subunit), phosphorus-32 incorporation into histone
measurement setup: pH 7.5; 40 μM ATP; histone-H-2B; read-out: Inhibition of cAMP-kinase, IC50-values
pIC50: −log10 of the molar value. Counter-ions that a name gives are not always drawn.
measured parameter: pIC50

Some molecules with known pIC50 results, for comparison:
CCCCCCCCCCCCCCCCCCOCC(CN(C)C)OC(C)=O (racemic) [A, acetate hydrochloride]    < 4.00
CCCCCCCCCCOCC(CN1CCC(CN)(c2ccccc2)CC1)OCCCCCCCCCC (stereo not drawn) [B]    4.54

Now look at this entry.
cycloAMP-dependent kinase (Homo sapiens, UniProt P17612) pIC50 of CCCCCCCCCCCCCCCCCCOCC(O)CN(C)C(CO)C(=O)O (stereo not drawn) [Example 1, hydrochloride] is < 4.00

These entries and their values trace back to patent US5401875A.
